- Tested System: CDK2/cyclinA (Homo sapiens)
- Test Details: CDK2/cyclinA kinase assay, IMAP fluorescence polarization
Property Name: IC50

Take a look at these entries with their results.
Smiles Input: CCCCNc1ncccc1-c1nc(Nc2cccc(Cl)c2)ncc1C
IC50: > 50 µM

Smiles Input: COc1ncccc1-c1ccnc(Nc2ccc(N3CCN(C)CC3)cc2)n1
IC50: < 5 µM

Smiles Input: OCCCNc1ncccc1-c1ccnc(Nc2cccc(Cl)c2)n1
IC50: < 5 µM

Dear colleague, could you please provide IC50 for the compounds listed below?
1. CNCCNc1nccc(-c2ccnc(Nc3cccc(Cl)c3)n2)c1C
2. Cc1c(-c2ccnc(Nc3cccc(Cl)c3)n2)ccnc1NCCCN1CCOCC1
3. COc1ncccc1-c1ccnc(Nc2ccc3cn[nH]c3c2)n1
4. CS(=O)(=O)c1cccc(Nc2nccc(-c3cccnc3NCCCN)n2)c1
5. COc1ncccc1-c1ccnc(Nc2cccc(C3CCN(C(=O)OC(C)(C)C)CC3)c2)n1
6. COCCCNc1ncccc1-c1ccnc(Nc2cccc(Cl)c2)n1
7. COc1ncccc1-c1ccnc(Nc2cccc(S(C)(=O)=O)c2)n1
8. NCCCCNc1ncccc1-c1ccnc(Nc2cccc(Cl)c2)n1

A.
["< 5 µM", "< 5 µM", "< 5 µM", "< 5 µM", "> 50 µM", "< 5 µM", "< 5 µM", "< 5 µM"]

---

- Tested System: CDK1/cyclinB (Homo sapiens, UniProt P06493)
- Construct: purchased Millipore
- Sequence (P06493 whole entry): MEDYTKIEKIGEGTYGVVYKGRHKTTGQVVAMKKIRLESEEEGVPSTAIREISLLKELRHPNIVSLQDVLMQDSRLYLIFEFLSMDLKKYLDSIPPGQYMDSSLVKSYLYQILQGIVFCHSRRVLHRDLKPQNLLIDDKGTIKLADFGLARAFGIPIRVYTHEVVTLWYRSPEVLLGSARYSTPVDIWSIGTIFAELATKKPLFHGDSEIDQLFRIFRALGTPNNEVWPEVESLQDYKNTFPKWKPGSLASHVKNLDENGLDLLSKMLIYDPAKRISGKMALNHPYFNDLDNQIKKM
- Sequence (P14635 whole entry partner): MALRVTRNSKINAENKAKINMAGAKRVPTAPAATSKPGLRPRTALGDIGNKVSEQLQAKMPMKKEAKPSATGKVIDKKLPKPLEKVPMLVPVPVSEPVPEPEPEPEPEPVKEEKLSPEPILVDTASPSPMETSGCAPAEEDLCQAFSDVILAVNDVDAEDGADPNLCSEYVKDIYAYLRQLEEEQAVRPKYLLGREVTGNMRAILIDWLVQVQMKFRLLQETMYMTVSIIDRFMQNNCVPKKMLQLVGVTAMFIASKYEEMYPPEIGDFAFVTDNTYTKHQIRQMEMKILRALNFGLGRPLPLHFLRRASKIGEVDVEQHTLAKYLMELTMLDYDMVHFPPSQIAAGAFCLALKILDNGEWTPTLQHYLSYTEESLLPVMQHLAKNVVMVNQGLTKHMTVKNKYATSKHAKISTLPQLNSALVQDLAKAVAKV
- Test Details: CDK1/cyclinB kinase assay, IMAP fluorescence polarization
- Type: biochemical
- Test Parameters: read-out: CDK1 IC50
Property Name: IC50

Sample answers from the record:
Smiles Input: Cc1cc(-c2ccnc(NCCCN)c2)nc(Nc2cccc(Cl)c2)n1
Tested System: CDK1/cyclinB (Homo sapiens, UniProt P06493)
Result: > 50 µM
//
Smiles Input: NS(=O)(=O)c1cccc(Nc2nccc(-c3cccnc3NCCCn3ccnc3)n2)c1
Tested System: CDK1/cyclinB (Homo sapiens, UniProt P06493)
Result: < 5 µM
//
Smiles Input: COc1ncccc1-c1ccnc(Nc2cccc(-c3cnco3)c2)n1
Tested System: CDK1/cyclinB (Homo sapiens, UniProt P06493)
Result: < 5 µM
//
Smiles Input: Clc1cccc(Nc2nccc(-c3ccnc4ccccc34)n2)c1
Tested System: CDK1/cyclinB (Homo sapiens, UniProt P06493)
Result: < 5 µM
//
Smiles Input: COc1ccc(-c2ccnc(Nc3cccc(S(C)(=O)=O)c3)n2)c(OC)n1
Tested System: CDK1/cyclinB (Homo sapiens, UniProt P06493)
Result: < 5 µM
//
Smiles Input: COc1ncccc1-c1ccnc(Nc2cccc(-c3nncn3C)c2)n1
Tested System: CDK1/cyclinB (Homo sapiens, UniProt P06493)
Result: 5 to 15 µM
//
Smiles Input: Cc1c(-c2ccnc(Nc3cccc(Cl)c3)n2)ccnc1NCCCN1CCCC1=O
Tested System: CDK1/cyclinB (Homo sapiens, UniProt P06493)
Result: 5 to 15 µM
//
Smiles Input: COc1ncccc1-c1ccnc(Nc2cccc(C#N)c2)n1
Tested System: CDK1/cyclinB (Homo sapiens, UniProt P06493)
Result: < 5 µM

State recorded IC50 for all listed compounds.
1. CC(C)(C)CC(=O)NCCCNc1ncccc1-c1ccnc(Nc2cccc(Cl)c2)n1
2. COc1cnccc1-c1ccnc(Nc2cccc(S(C)(=O)=O)c2)n1
3. CC(=O)NCCCNc1cc(-c2nc(Nc3cccc(Cl)c3)ncc2C)ccn1
4. CC(=O)N(C)CCCN(C)c1nccc(-c2ccnc(Nc3cccc(Cl)c3)n2)c1C
5. COc1ncccc1-c1ccnc(Nc2cccc(S(C)(=O)=O)c2)n1
6. CCN(CC)S(=O)(=O)c1cccc(Nc2nccc(-c3cccnc3OC)n2)c1

A.
1: 5 to 15 µM; 2: < 5 µM; 3: < 5 µM; 4: 5 to 15 µM; 5: < 5 µM; 6: > 50 µM

Provide IC50 for all items below, preserving their order.
1. NCCCCNc1ncccc1-c1ccnc(Nc2cccc(Cl)c2)n1
2. CN(C)CCCNc1ncccc1-c1ccnc(Nc2cccc(Cl)c2)n1
3. COc1ncccc1-c1ccnc(Nc2cccc(C3CCNCC3)c2)n1

A.
1: < 5 µM; 2: < 5 µM; 3: < 5 µM
